- system: IDO1 (Homo sapiens)
- Sequence (P14902 whole entry): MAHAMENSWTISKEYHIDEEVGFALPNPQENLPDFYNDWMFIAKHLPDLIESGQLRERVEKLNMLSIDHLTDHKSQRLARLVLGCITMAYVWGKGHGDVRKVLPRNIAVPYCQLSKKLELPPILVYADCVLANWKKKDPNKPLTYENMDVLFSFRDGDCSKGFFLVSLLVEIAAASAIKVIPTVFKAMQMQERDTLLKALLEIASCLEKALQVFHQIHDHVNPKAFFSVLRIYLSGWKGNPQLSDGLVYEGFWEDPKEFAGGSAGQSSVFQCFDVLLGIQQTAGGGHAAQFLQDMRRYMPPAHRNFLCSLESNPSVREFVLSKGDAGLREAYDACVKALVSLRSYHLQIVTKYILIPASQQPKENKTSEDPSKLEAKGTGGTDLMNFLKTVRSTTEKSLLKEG
- experimental_details: Hela cell-based IDO1 assay
- experimental_parameters: Hela cells
experimental_endpoint: EC50 (nM)

Below, each entry is followed by its recorded EC50 result.
Oc1cccc(C2CCC(C(O)c3c(C4CC4)ccc4cncn34)CC2)c1 (centres unmarked)
40
OC(c1c(C2CC2)ccc2cncn12)C1CCC(c2cc3ccccc3s2)CC1 (centres unmarked)
648
COc1ccc([C@H]2CC[C@H]([C@H](O)c3c(C4CC4)ccc4cncn34)CC2)cc1 (single isomer, unassigned) [Example D102a]
29
OC(c1c(C2CC2)ccc2cncn12)C1CCC(c2ccc(F)cc2)CC1 (centres unmarked)
44
CC(C)c1ccc2cncn2c1C(O)C1CCC(c2ccc(F)cc2)CC1 (centres unmarked)
29

A: OC(c1c(C2CC2)ccn2cncc12)C1CCC(c2ccc(Cl)cc2)CC1 (racemic)
B: OC(c1c(C2CC2)ccn2cncc12)C1CCN(c2ccc(Cl)c3ncccc23)CC1 (single isomer, unassigned) [Example C154a]
C: COc1ccc([C@H]2CC[C@H]([C@@H](O)c3c(C4CC4)ccc4cncn34)CC2)c(Cl)c1 (single isomer, unassigned) [Example D147b]
D: OC(c1c(C2CC2)ccc2cncn12)C1CCC(c2ccc(F)c(F)c2)CC1 (centres unmarked)
E: OC(c1c(C2CC2)ccn2cncc12)C1CCC(c2cccc(F)c2)CC1 (racemic)
Request: Reorder: EC50, max to min. Use the labels to give the ranking in the order requested.
Result: C, A, E, D, B
(C: 4500 nM, A: 261 nM, E: 100 nM, D: 64 nM, B: 18 nM)

A: O[C@@H](c1c(C2CC2)ccc2cncn12)[C@H]1CC[C@H](c2cccc(Cl)c2)CC1 (single isomer, unassigned) [Example D116b]
B: OC(c1c(C2CC2)ccn2cncc12)C1CCN(c2cccnc2)CC1 (centres unmarked)
Request: Short answer wanted: higher EC50, A or B ? Please identify the chosen entry by its label.
Result: A
